test_description: Cell Viability - LYMP2-003 (AID 965);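 note: cells exposed to compounds for 24 h before reading; nearly all actives have a fitted effect of over 50% in size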
test_conditions: LYMP2-003 lymphoblastoid cell viability; series mostly up to 92.2 µM
Records with an inconclusive call do not appear. Calls of active or inactive are those of the source. Calls come from the whole dose curve; as a rule, active = well fitted cell-killing curve with a large enough effect; inconclusive = small, poorly fitted or top-dose-only effect, or effect the other way; inactive = flat fitted curve, though single readings scatter.
Please state which outcome applies, choosing from active, inactive

COC1=CC(=O)O[C@@H](/C=C/c2ccccc2)C1 :: inactive

**Q:** Outcome? CCCCCl
**A:** inactive

**Q:** Likewise for O=C/C=C/c1ccccc1 ?
**A:** inactive

**Q:** Likewise for [Cl-].[Cl-].[Hg+2] ?
**A:** active

**Q:** Likewise for O=[N+]([O-])c1ccccc1 ?
**A:** inactive

**Q:** Likewise for Oc1cc(Cl)c(Cl)cc1Cl ?
**A:** inactive

**Q:** Likewise for O=C1CCO1 ?
**A:** inactive

---

test_description: Cell Viability - MRC5 (AID 434);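 note: cells exposed to compound for 40 hours at 37 °C; potency reflects cytotoxicity seen as loss of intracellular ATP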
test_conditions: MRC5 lung fibroblast viability, qHTS
Inconclusive results are not listed. The source made the active and inactive calls. The call rests on the fitted dose curve.
Please state which outcome applies, choosing from active, inactive

Worked examples follow.
O=C/C=C/c1ccccc1 :: inactive
O=[N+]([O-])c1ccccc1 :: inactive
S=C=S :: inactive
ClCC1CO1 (centres undefined) :: inactive
COc1ccc2c(c1OC)C(=O)OC2C1c2cc3c(cc2CCN1C)OCO3 (centres undefined) :: inactive
CCCCCl :: inactive
ClC=C(Cl)Cl :: inactive
C[C@H]1CC[C@@H]2[C@@H](C)[C@H]3[C@H](C[C@H]4[C@@H]5CC=C6CC(O[C@@H]7O[C@H](CO)[C@H](O)[C@H](O[C@@H]8O[C@H](CO)[C@@H](O)[C@H](O)[C@H]8O)[C@H]7O[C@H]7O[C@@H](C)[C@H](O)[C@@H](O)[C@H]7O)CC[C@]6(C)[C@H]5CC[C@]34C)N2C1 (some centres undefined) :: active

**Q:** Outcome? CCCCCCCCOC(=O)c1ccccc1C(=O)OCCCCCCCC
**A:** inactive

**Q:** Likewise for O=C1C=CC(=O)C=C1 ?
**A:** inactive

**Q:** Likewise for ClC(Cl)(Cl)Cl ?
**A:** inactive

**Q:** Likewise for C=CCN=C=S ?
**A:** inactive

**Q:** Likewise for O=C(O)C(Cl)(Cl)Cl ?
**A:** inactive

**Q:** Likewise for Oc1cc(Cl)c(Cl)cc1Cl ?
**A:** inactive

---

System: astro
test_description: Drug repurposing screens with cells derived from glioblastoma tumor samples (AID 1345199); note: nearly all actives have a fitted effect of over 40% in size
test_conditions: viability, ATP luminescence, 48 h; series mostly up to 45.9 µM
Inconclusive results are not listed. Calls of active or inactive are those of the source. Calls come from the whole dose curve; as a rule, active = well fitted inhibition curve with a large enough effect; inconclusive = small, poorly fitted or top-dose-only effect; inactive = flat fitted curve, though single readings scatter.
Please state which outcome applies, choosing from T for active, F for inactive

Worked examples follow.
CC(=O)Oc1ccc2c3c1O[C@H]1[C@@H](OC(C)=O)C=C[C@H]4[C@@H](C2)N(C)CC[C@@]341 :: F
C=CCN(C1=NCCN1)c1c(Cl)cccc1Cl :: F
OC[C@@H](O)[C@H]1O[C@@H]2O[C@@H](C(Cl)(Cl)Cl)O[C@@H]2[C@H]1O :: F
C[C@H]1CC[C@@H]2[C@@H](C)[C@H]3[C@H](C[C@H]4[C@@H]5CC=C6CC(O[C@@H]7O[C@H](CO)[C@H](O)[C@H](O[C@@H]8O[C@H](CO)[C@@H](O)[C@H](O)[C@H]8O)[C@H]7O[C@H]7O[C@@H](C)[C@H](O)[C@@H](O)[C@H]7O)CC[C@]6(C)[C@H]5CC[C@]34C)N2C1 (stereo partly drawn) :: T
O=C(OCCN1CCCCC1)C(O)(c1ccccc1)c1ccccc1 :: F
CCC(C)(S(=O)(=O)CC)S(=O)(=O)CC :: F

**Q:** Outcome? C[C@@H](Cc1ccccc1)N(C)C
**A:** F

**Q:** Likewise for O=C(CS(=O)C(c1ccccc1)c1ccccc1)NO (stereo not drawn) ?
**A:** F

Values from PubChem BioAssay (NCATS)
